meta.source: PubChem BioAssay (Tox21)

Test Target: Acetylcholinesterase (Homo sapiens)
Method Description: Acetylcholinesterase (AChE) small molecule antagonists: fluorescence cell-based qHTS assay (AID 1347398); note: nearly all actives have a fitted effect of over 50% in size
Test Context: SH-SY5Y cells; AChE activity; series mostly up to 115 µM
Records with an inconclusive call do not appear. Active and inactive are the calls of the source. Calls come from the whole dose curve.
Classes used: Y for active, N for inactive

CCCCCCCCCCn1cc[n+](C)c1	Y
CCNc1nc(Cl)nc(NCC)n1	N
Nc1ccc(-c2ccc(N)c(Cl)c2)cc1Cl	N
O=c1[nH]c(=O)n(Cl)c(=O)n1Cl	N
C[C@]12CCC(=O)C=C1CC[C@@H]1[C@@H]2CC[C@]2(C)C(=O)CC[C@@H]12	N
CCn1cc[n+](C)c1C	N
CCCCCCCCCCCC(=O)O	N
COP(=O)(OC)OC=C(Cl)Cl	N
O=C(O)C(Cl)(Cl)Cl	N
O=c1nc(O)n(Cl)c(=O)n1Cl	N
O=C(O)COc1ccc(Cl)cc1Cl	N
CC[N+]1(C)CCCC1	N
Cc1cc(Cl)ccc1OCC(=O)O	N
O=C(O)CCl	N
CCC(=O)C(CC(C)N(C)C)(c1ccccc1)c1ccccc1 (stereo not given)	N
